# test-details: NCI Yeast Anticancer Drug Screen. Data for the rad50 strain (AID 155);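 also: 0% = growth of vehicle-only cultures of the same strain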
# protocol-conditions: S. cerevisiae rad50 strain growth inhibition; at 50.0 µM
About 79,000 compounds went through this panel and 15% of them were active in at least one assay; those are over-represented in the sample as a whole. Calls of active or inactive are those of the source. Rule as the data show it: active = growth inhibition above about 70%; inactive = the rest.
Outcome field: choose from true (1) for active, false (0) for inactive

The examples below pair each entry with its known result.
CC1OC(OCC2COC(O)(Oc3c(-c4ccc(O)c(O)c4)oc4cc(O)cc(O)c4c3=O)C(O)C2O)C(O)C(O)C1O (stereo unspecified) = false (0)
Cc1c(N(C)C)ccc2c(=O)c3cccc(CC(=O)O)c3oc12 = false (0)
CCN(CC)c1ccc(/C=C2\CCc3ccc([N+](=O)[O-])cc3C2=O)cc1 = false (0)
Cc1c(N=Nc2cccc(Cl)c2)c(-c2ccccc2)nn1C(N)=S = true (1)
N#CC(C#N)=C(C#N)Nc1ccc(F)cc1 = false (0)
Cc1ccc(NC(=O)N2CC2(C)C)cc1NC(=O)N1CC1(C)C = false (0)
CCCCCCCCCc1ccc(OC(=O)CCC)cc1 = false (0)
CCN(CC)Cc1cc(N=Nc2ccc3c(c2)c2ccccc2n3CC)c2ccccc2c1O = false (0)
CCCC(=O)Oc1ccc(C(C)(C)C)cc1 = false (0)
OCC1COC(c2ccc(Cl)cc2)O1 (stereo unspecified) = false (0)

Turning now to a further compound:
Any idea what this test logged for CN(C)c1ccc(N=Nc2ccc3nc[nH]c3c2)cc1 ?
false (0)
